Values were extracted from paper PMC7093421.

target: human α1β2γ2L GABAA receptor (Homo sapiens, UniProt P14867+P18507+P47870); construct: α1β2γ2L receptor expressed in Xenopus laevis oocytes; with GABRB2 (β2) and GABRG2 (γ2L) subunits; assay: two-electrode voltage clamp in Xenopus oocytes, inhibition of GABA-evoked current ([…] GABA)
Sequence (P14867 28-456): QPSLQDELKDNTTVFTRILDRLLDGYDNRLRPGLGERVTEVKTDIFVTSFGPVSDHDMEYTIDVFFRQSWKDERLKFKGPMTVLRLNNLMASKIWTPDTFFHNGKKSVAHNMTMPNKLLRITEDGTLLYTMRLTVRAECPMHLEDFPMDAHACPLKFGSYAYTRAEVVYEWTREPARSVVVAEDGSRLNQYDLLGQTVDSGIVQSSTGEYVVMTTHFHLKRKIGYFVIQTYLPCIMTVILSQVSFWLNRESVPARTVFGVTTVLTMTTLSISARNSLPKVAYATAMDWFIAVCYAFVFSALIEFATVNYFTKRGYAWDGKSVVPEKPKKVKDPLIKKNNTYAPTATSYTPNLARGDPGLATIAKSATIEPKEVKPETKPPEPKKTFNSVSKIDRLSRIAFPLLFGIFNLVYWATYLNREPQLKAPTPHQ
Sequence (P47870 26-512): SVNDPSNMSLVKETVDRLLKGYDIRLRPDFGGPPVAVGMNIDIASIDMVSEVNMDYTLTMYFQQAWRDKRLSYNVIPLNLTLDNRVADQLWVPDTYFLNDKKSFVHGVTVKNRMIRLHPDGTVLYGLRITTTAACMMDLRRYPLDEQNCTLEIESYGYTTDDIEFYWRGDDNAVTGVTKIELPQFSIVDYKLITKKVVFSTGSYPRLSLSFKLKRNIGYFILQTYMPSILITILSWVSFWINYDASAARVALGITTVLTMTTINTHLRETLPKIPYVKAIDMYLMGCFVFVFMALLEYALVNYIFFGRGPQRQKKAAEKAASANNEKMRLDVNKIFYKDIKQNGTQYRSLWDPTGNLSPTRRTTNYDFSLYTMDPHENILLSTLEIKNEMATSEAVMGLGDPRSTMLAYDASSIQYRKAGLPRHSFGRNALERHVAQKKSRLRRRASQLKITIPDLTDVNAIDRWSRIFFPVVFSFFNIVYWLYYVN
Sequence (P18507 40-475): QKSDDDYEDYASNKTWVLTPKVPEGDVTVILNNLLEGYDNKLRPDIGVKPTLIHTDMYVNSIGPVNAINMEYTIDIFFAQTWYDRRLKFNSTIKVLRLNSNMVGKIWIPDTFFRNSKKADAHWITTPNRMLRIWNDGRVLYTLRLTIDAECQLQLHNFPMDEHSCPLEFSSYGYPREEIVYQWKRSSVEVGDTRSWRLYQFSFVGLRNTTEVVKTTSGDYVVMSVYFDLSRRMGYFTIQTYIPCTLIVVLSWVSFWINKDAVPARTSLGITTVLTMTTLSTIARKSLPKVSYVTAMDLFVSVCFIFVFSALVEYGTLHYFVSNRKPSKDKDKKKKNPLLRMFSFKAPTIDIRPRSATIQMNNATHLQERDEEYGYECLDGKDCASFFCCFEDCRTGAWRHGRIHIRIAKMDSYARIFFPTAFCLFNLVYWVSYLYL
Assay readout: IC50 (µM)
Value expressed in µM; do not type the unit.

mol=O=S(=O)(O)C(F)(F)C(F)(F)C(F)(F)C(F)(F)C(F)(F)C(F)(F)C(F)(F)C(F)(F)F measured=0.18

For the next question, use this compound.
Give IC50 for O=C(O)C(F)(F)C(F)(F)C(F)(F)C(F)(F)C(F)(F)C(F)(F)C(F)(F)F 6.7
